target: human CD3 (human, UniProt P07766 23-207; P09693 23-182; P04234 22-171); test: cell-based or functional assay
readout-label: EC50 of dTomato induction (CD69 promoter), Jurkat-CD69-dTomato cells, 24 h (µg/mL)
Give just the number in µg/mL; leave the unit off.

Below: 2 binders and their reported EC50 of dTomato induction (CD69 promoter), Jurkat-CD69-dTomato cells, 24 h.
| binder | result-units | value-observed |
| --- | --- | --- |
| F332-3E9 (antibody, mouse IgG2a, V domains shown, also called F332-3E9-2; F332-3E9 (12G4)) VH: QVQLQQPGAELGKPGTSVKLSCKASGYTFTSYWIHWLKQRPGQGLEWIGNINPNGGSINCNEKFTTKATLTIDKSSSTAYMQLSTLTSEDFAVYYCTRDTSGQYYFDYWGQGTTLTVSS VL: DIMMSQSPSSLAVSAGEKVTMSCKSSQSLLNSRTRKNYLAWYQQKPGQSPKLLIYWASTRESGVPDRFTGSGSGTDFTLTISSVQAEDLAVYYCTQSYHLRTFGGGTKLEIK | µg/mL | 0.11 |
| F332-12F6 (antibody, mouse IgG2a, V domains shown, also called F332-12F6-2) VH: QVQLQQPGAELGKPGTSVKLSCKASGYTFTSYWIHWVKQRPGQGLEWIGNINPNSGSTNYNEKFKSKATLTVDKSSSTAYMQLSTLTSEDSAVYYCTRDISGQYYFDYWGQGTTLTVSS VL: DIVMSQSPSSLAVSAGEKVTMSCKSSQSLLNSRTRKSYLAWYQQKPGQSPKLLIYWASTRESGVPDRFTGSGSGTDFTLTISSVQAEDLAVYYCIQSYNLRTFGGGTKLEIK | µg/mL | 0.25 |

// switching to the query binder
Which EC50 of dTomato induction (CD69 promoter), Jurkat-CD69-dTomato cells, 24 h value is on record for F332-13B4 (antibody, mouse IgG2a, V domains shown, also called F332-13B4-2) VH: QVQLQQSGPELVKPGASVKISCKASGYSFTNSYVHWVKQTPGQGLEWIGWIYPGSTNIKYNEKFKGKATLTADTSSSTVYMQLSSLTSEDSAVYFCARDGSYFFDYWGQGTTLTVSS VL: DIVMSQSPSSLAVSAGEKVTMTCKSSQSLLNSRTRKNYLAWYQQKPGQSPKLLIYWASTRESGVPDRFTGSGSGTDFTLTISSVQAEDLAVYYCKQSYILRTFGGGTKLEIK ?
0.47
